- protocol description: soluble on expression in E. coli; label from the status in PepcDB or PDB records

sequence input	soluble on expression in E. coli
MGSSHHHHHHGGTGENLYFQGGSGLLMRSSSPAATVQATHQRVQSAQERHVRREYASDVNTPRALSVRSSRGGSFAFAPQVQEKYNTMNILVLGAPQVGKSLFINSYRAAITNTTRWPAAPVGISGFYGTTTVAPFPNHARQPTWLCIDTPGSLYTEKHAVLLEKLTEGMPWKTKLKGPNALTLRQIKDISPIAANKAHQCIIVVPATDLIEDDGLINTLLWRNRYRPAGGVADIIFYLKGLISSLRTLMDDASPFVVVTKMDKVGGARNSSACAALVSILGQCVPVNHVYFTAAVENRALLATGRTMVLESSTKQNLVRLHEDICLAVQWRNQVDAM	not soluble
MSSARRCLFGRPTPEQRSRTRIWLEDAVKRMRQEESQKWGFDFELETPLPSSAGFVYEVIPENCVPEFYRTKVLTVRTTCSSLDISSTTLTPLSSPSTSDKEEPSLMDPNSSFEDEEEPKKWQFREPPTPRKTPTKRQQKMTDFMAVSRKKNSLSPNKLSPVNVIFTPKSRRPTIRTRSSCSPY	not soluble

Each recorded value in this set is attributed to the DeepSol protein solubility set.
